I'd appreciate it if you could supply PBM binding z-score values for the items below.
Tested on: RARb homodimer (NR concentration 270 nM)
Assay: PBM binding z-score (relative to random genomic background probes); higher = stronger binding; sequences stand for … in GC…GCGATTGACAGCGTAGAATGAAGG
Numbers only.

These solved cases illustrate the format of a correct answer.
BIOPOLYMER_SEQUENCE: ATCTCTAGGTCACAAGTTCAGTGAAAGAGAGGAC
TARGET_OR_SYSTEM: RARb homodimer (NR concentration 270 nM)
PBM binding z-score: 4.24
//
BIOPOLYMER_SEQUENCE: GGAACGAGGGAATTCGAGTTGATAGCATGGCGAT
TARGET_OR_SYSTEM: RARb homodimer (NR concentration 270 nM)
PBM binding z-score: -0.928
//
BIOPOLYMER_SEQUENCE: CGTCCACGGTCAGCAGGTCAGTGAAAGCGACGTG
TARGET_OR_SYSTEM: RARb homodimer (NR concentration 270 nM)
PBM binding z-score: 3.48

Please go through the list and note PBM binding z-score for each sequence.
1. ATCGAAAGGTCGAAGGTGTGTATACCCACCCGAA
2. GGAACGAGGGCAAAGTGGATAGCATCTGTCGACG
3. ATCCCAAGGTGATCGTGAGGTCGTTGATACTAAC
4. TAGCCTAGGTCATTCAGGGGCCAGGATAGAAAGC
5. CCGACTGGGGGAAGGTTACCATAACGCACAGCCA

1. 2.15
2. 1.05
3. 1.61
4. 3.18
5. 0.998

Please go through the list and note PBM binding z-score for each sequence.
1. ACAGACAGGTGAGTGTAGGTAACTCAGCTGGACG
2. AGAATGAGGTTACCAAAGATCAGGGCAACGCTTG
3. TCTATTAGTTCAAGGGCAACCGACGAGTCCGTTT
4. CTTTACGGGTCACTGACAGGTTATAGCATTTGGA

[-0.178, 1.97, 2.81, 3.58]

Please go through the list and note PBM binding z-score for each sequence.
1. CCGACTGGGGCATAAGGTCACCATAAGCCAGCCC
2. TCTTGTAGATCAATAGAGGGTAAGAAAGTGCGCT
3. CGAACAAGGTCAAGGACAGTGAATCTCCGCACGC
4. CCTACTGGGCCCAAAAGGTCATTGATGCCGATAA

4.32
0.255
4.07
4.35
